The measured values listed here are drawn from PubChem BioAssay AID492972.

Biological target: Platelet-activating factor acetylhydrolase IB subunit alpha1 (Homo sapiens) (UniProt Q15102)
Sequence (Q15102 whole entry, looked up): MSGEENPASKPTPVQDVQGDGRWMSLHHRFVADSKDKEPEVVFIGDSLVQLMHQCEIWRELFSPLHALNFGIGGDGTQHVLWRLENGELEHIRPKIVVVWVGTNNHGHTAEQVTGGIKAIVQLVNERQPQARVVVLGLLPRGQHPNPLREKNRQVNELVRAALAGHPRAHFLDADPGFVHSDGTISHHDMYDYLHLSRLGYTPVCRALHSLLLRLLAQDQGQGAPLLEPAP
Experiment: PAFAH1B3 enzyme inhibitors, primary screen, biochemical, fluorescence polarization, human (AID 492972);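 note: 0% = enzyme with DMSO only and 100% = wells lacking PAFAH1B3 protein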
Conditions: recombinant PAFAH1B3, FP-rhodamine probe, at 3.39 µM, stronger effect = higher value
The campaign covered roughly 340,000 compounds. About 930 (0.27%) were called active. The sample holds actives, similar compounds and a random draw of the others, so the mix is not that of the screen.
compounds and their reported inhibition
The figure you give is taken to be in %; do not add the unit.

For COc1cccc(C2CC(c3ccccc3)=NN2S(=O)(=O)c2ccccc2)c1OC (stereo not given) , write its inhibition.
0.58

For `CCOC(=O)c1ccc(-c2ccc(C(=O)Nc3cccnc3)o2)cc1` , write its inhibition.
-6.74

For `O=C(COc1ccc(S(=O)(=O)NCc2ccccc2)cc1)N1CCOCC1` , write its inhibition.
-1.1

For CCCS(=O)(=O)N1CCCC(C(=O)NCCN2CCCCC2C)C1 (stereo not given) , write its inhibition.
-3.97

For COc1ccc(N(CC(=O)NCC2CCCO2)C(=O)CCC(=O)Nc2nccs2)c(OC)c1 (stereo not given) , write its inhibition.
2.48
